target: NRAS G12C (Homo sapiens, UniProt P01111+P62937, G12C); assay: Disruption of BRAF RBD interaction with Ras (FRET / MOA assay, with Cyclophilin A); format: biochemical; details: NRAS G12C; read-out: NRAS G12C FRET data IC50
Sequence (P01111 whole entry G12C): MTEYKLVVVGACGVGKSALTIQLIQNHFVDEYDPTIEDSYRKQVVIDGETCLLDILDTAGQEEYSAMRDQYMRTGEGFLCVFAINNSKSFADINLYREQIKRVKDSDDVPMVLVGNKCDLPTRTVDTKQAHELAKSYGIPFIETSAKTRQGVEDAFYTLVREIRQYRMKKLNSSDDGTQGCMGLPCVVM
Sequence (P62937 whole entry): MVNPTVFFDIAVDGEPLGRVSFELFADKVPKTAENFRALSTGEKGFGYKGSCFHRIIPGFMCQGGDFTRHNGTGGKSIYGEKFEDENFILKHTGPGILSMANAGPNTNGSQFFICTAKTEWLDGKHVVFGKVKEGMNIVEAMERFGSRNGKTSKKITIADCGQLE
pIC50: −log10 of the molar value.
Listed here: items and their measured pIC50.

Worked examples, 5 compounds total:
[[record]]
compound = "CCn1c(-c2cccnc2[C@H](C)OC)c2c3cc(ccc31)-c1csc(n1)C[C@H](NC(=O)[C@H](C(C)C)N(C)C(=O)N1CC3(CCCO3)C1)C(=O)N1CCC[C@H](N1)C(=O)OCC(C)(C)C2 (atropisomer, axis not shown) [Example A522]"
value_kind = "pIC50"
measured_value = "6.00 to 7.00"

[[record]]
compound = "CO[C@@H](C)c1ncccc1-c1c2c3cc(ccc3n1CC(F)(F)F)N1CCO[C@@H](C[C@H](NC(=O)[C@H](C(C)C)N3CC[C@@]4(CCN(C(=O)C#CC(C)(C)N(C)C)C4)C3=O)C(=O)N3CCCC(N3)C(=O)OCC(C)(C)C2)C1 [Example A628]"
value_kind = "pIC50"
measured_value = "> 8.00"

[[record]]
compound = "CCn1c(-c2cccnc2[C@H](C)OC)c2c3cc(ccc31)-c1csc(n1)C[C@H](NC(=O)[C@@H](OC(=O)N1CC(N(C)C)C1)C(C)C)C(=O)N1CCC[C@H](N1)C(=O)OCC(C)(C)C2 [Example A339]"
value_kind = "pIC50"
measured_value = "6.00 to 7.00"

[[record]]
compound = "CCn1c(-c2cccnc2[C@H](C)OC)c2c3cc(ccc31)-c1csc(n1)C[C@H](NC(=O)[C@H](C(C)C)N(C)C(=O)N1CC[C@]13CCCNC3)C(=O)N1CCC[C@H](N1)C(=O)OCC(C)(C)C2 [Example A434]"
value_kind = "pIC50"
measured_value = "6.00 to 7.00"

[[record]]
compound = "CCn1c(-c2cccnc2[C@H](C)OC)c2c3cc(ccc31)-c1csc(n1)C[C@H](NC(=O)[C@H](C(C)C)N1CCC3(CN(C)C3)C1=O)C(=O)N1CCC[C@H](N1)C(=O)OCC(C)(C)C2 [Example A222]"
value_kind = "pIC50"
measured_value = "< 5.00"


Consider the record given below.
Measured pIC50, C=CC(=O)N1CC[C@]2(C1)OCN(C(=O)N(C)[C@H](C(=O)N[C@H]1Cc3cccc(n3)-c3ccc4c(c3)c(c(-c3cccnc3[C@H](C)OC)n4CC)CC(C)(C)COC(=O)[C@@H]3CCCN(N3)C1=O)C(C)C)C2=O (atropisomer, axis not shown) [Example A652] : 6.00 to 7.00

====

Target: NRAS Q61R (Homo sapiens, UniProt P01111+P62937, Q61R)
Sequence (P01111 whole entry Q61R): as the sequence (P01111 whole entry G12C) above, with C12G, Q61R counted along it
Sequence (P62937 whole entry): as the sequence (P62937 whole entry) above
Test: Disruption of BRAF RBD interaction with Ras (FRET / MOA assay, with Cyclophilin A)
Type: biochemical
Settings: NRAS Q61R; read-out: NRAS Q61R FRET data IC50
Text: Disruption of B-Raf Ras-Binding Domain (BRAF^RBD) Interaction with K-Ras by Compounds of the Invention (Also Called a FRET Assay or an MOA Assay) Note—The following protocol describes a procedure for monitoring disruption of K-Ras G12C (GMP-PNP) binding to BRAF^RBD by a compound of the invention. This protocol may also be executed substituting other Ras proteins or nucleotides. […]
pIC50: −log10 of the molar value.
value_kind: pIC50

Worked examples, 5 compounds total:
[[record]]
compound = "CCn1c(-c2cccnc2[C@H](C)OC)c2c3cc(ccc31)-c1cc(O)cc(c1)C[C@H](NC(=O)[C@H](C(C)C)N(C)C(=O)[C@H]1[C@@H]3CNC[C@@H]31)C(=O)N1CCC[C@H](N1)C(=O)OCC(C)(C)C2 [Example A163]"
target_under_test = "NRAS Q61R (Homo sapiens, UniProt P01111+P62937, Q61R)"
value_kind = "pIC50"
measured_value = "5.00 to 6.00"

[[record]]
compound = "CCn1c(-c2cccnc2[C@H](C)OC)c2c3cc(ccc31)-c1csc(n1)C[C@H](NC(=O)[C@H](C(C)C)N(C)C(=O)N1CCN(C(=O)C3COC3)CC1)C(=O)N1CCC[C@H](N1)C(=O)OCC(C)(C)C2 (atropisomer, axis not shown) [Example A606]"
target_under_test = "NRAS Q61R (Homo sapiens, UniProt P01111+P62937, Q61R)"
value_kind = "pIC50"
measured_value = "7.00 to 8.00"

[[record]]
compound = "CO[C@@H](C)c1ncccc1-c1c2c3cc(ccc3n1CC(F)(F)F)N1CCO[C@@H](C[C@H](NC(=O)[C@H](C(C)C)N3CC[C@@]4(CCN(C(=O)C#CC(C)(C)N(C)C)C4)C3=O)C(=O)N3CCCC(N3)C(=O)OCC(C)(C)C2)C1 [Example A628]"
target_under_test = "NRAS Q61R (Homo sapiens, UniProt P01111+P62937, Q61R)"
value_kind = "pIC50"
measured_value = "< 5.00"

[[record]]
compound = "CCn1c(-c2cccnc2[C@H](C)OC)c2c3cc(ccc31)-c1cc(O)cc(c1)C[C@H](NC(=O)[C@H](C(C)C)N(C)C(=O)[C@H]1CCN(C(=O)OC3COC3)C1)C(=O)N1CCC[C@H](N1)C(=O)OCC(C)(C)C2 [Example A204]"
target_under_test = "NRAS Q61R (Homo sapiens, UniProt P01111+P62937, Q61R)"
value_kind = "pIC50"
measured_value = "6.00 to 7.00"

[[record]]
compound = "CCn1c(-c2cccnc2[C@H](C)OC)c2c3cc(ccc31)-c1csc(n1)C[C@H](NC(=O)[C@H](C(C)C)N(C)C(=O)N1CCC3(CCN(C)CC3)C1)C(=O)N1CCC[C@H](N1)C(=O)OCC(C)(C)C2 (atropisomer, axis not shown) [Example A565]"
target_under_test = "NRAS Q61R (Homo sapiens, UniProt P01111+P62937, Q61R)"
value_kind = "pIC50"
measured_value = "7.00 to 8.00"


Measured pIC50, CCn1c(-c2cccnc2[C@H](C)OC)c2c3cc(ccc31)-c1csc(n1)C[C@H](NC(=O)[C@H](C(C)C)N(C)C(=O)N1CC(C(C)(C)OC)C1)C(=O)N1CCC[C@H](N1)C(=O)OCC(C)(C)C2 (atropisomer, axis not shown) [Example A614] : 6.00 to 7.00

Measured pIC50, CCn1c(-c2cccnc2[C@H](C)OC)c2c3cc(ccc31)-c1csc(n1)C[C@H](NC(=O)[C@H](C(C)C)N(C)C(=O)N1C3CC1CS(=O)(=O)C3)C(=O)N1CCC[C@H](N1)C(=O)OCC(C)(C)C2 [Example A496] : 5.00 to 6.00

Measured pIC50, CCn1c(-c2cccnc2[C@H](C)OC)c2c3cc(ccc31)-c1csc(n1)C[C@H](NC(=O)[C@H](C(C)C)N(C)C(=O)N1CC[C@@]3(CCN(C)C3=O)C1)C(=O)N1CCC[C@H](N1)C(=O)OCC(C)(C)C2 (single isomer, unassigned) [Example A495] : 6.00 to 7.00

====

molecular target: KRAS G13D (Homo sapiens, UniProt P01116+P62937, G13D); assay: Ras-Raf disruption / FRET / MOA assay (BRAF RBD); format: biochemical; details: KRAS G13D FRET data IC50, Ras-Raf disruption, with Cyclophilin A
Sequence (P01116 1-169 isoform P01116-2 G13D limits assumed): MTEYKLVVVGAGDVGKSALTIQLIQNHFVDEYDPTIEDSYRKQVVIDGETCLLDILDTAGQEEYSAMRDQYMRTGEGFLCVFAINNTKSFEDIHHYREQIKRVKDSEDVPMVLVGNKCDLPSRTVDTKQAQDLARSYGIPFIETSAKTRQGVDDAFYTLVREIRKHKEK
Sequence (P62937 whole entry): as the sequence (P62937 whole entry) above
Listed here: items and their measured IC50.

[[record]]
compound = "CCn1c(-c2cccnc2[C@H](C)OC)c2c3cc(ccc31)-c1cccc(c1)C[C@H](NC(=O)[C@H](C(C)C)N(C)C(=O)CN(C)C(=O)[C@H]1CN1)C(=O)N1CCC[C@H](N1)C(=O)OCC(C)(C)C2"
value_kind = "IC50"
measured_value = "1000 to 10000 nM"


Tested on KRAS G13D (Homo sapiens, UniProt P01116+P62937, G13D), the item CCn1c(-c2cccnc2[C@H](C)OC)c2c3cc(ccc31)-c1cc(O)cc(c1)C[C@H](NC(=O)[C@H](C(C)C)N(C)C(=O)CN(C)C(=O)[C@H]1CN1C(C)C)C(=O)N1CCC[C@H](N1)C(=O)OCC(C)(C)C2 (some centres unmarked) showed IC50 equal to 100 to 1000 nM

====

target: NRAS G12C (Homo sapiens, UniProt P01111+P62937, G12C); assay: Ras-Raf disruption / FRET / MOA assay (BRAF RBD); type: biochemical; conditions: NRAS G12C; read-out: NRAS G12C FRET data IC50
value_kind: IC50

[[record]]
compound = "CCn1c(-c2cccnc2[C@H](C)OC)c2c3cc(ccc31)-c1csc(n1)C[C@H](NC(=O)[C@H](C(C)C)N(C)C(=O)N1CCC(CN(C)C(=O)[C@H]3CN3)CC1)C(=O)N1CCC[C@H](N1)C(=O)OCC(C)(C)C2 (atropisomer, axis not shown)"
measured_value = "10 to 100 nM"


Consider the record given below.
Measured IC50, `CCCN=C=NCCC(=O)N(C)[C@H](C(=O)N[C@H]1Cc2cccc(c2)-c2ccc3c(c2)c(c(-c2cnccc2COC)n3CC)CC(C)(C)COC(=O)[C@@H]2CCCN(N2)C1=O)C(C)C` : 10 to 100 nM
